B1: TPR t1 (parent)
chain: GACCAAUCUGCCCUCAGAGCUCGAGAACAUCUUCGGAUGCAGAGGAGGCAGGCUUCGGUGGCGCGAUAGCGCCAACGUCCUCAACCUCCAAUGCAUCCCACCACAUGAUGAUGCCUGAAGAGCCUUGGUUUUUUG

Variants of: B1
Assay: polymerase ribozyme fitness, log enrichment relative to wild type (log ratio); higher = more active; in vitro selection for triplet polymerase activity
test.readout: polymerase ribozyme fitness (log ratio)
Answers are plain numbers.

[
  {
    "var": "C12G C98A",
    "test.readout": "polymerase ribozyme fitness (log ratio)",
    "numeric.value": -4.17
  }
]

Would you mind giving polymerase ribozyme fitness (log ratio) for every variant in the list below?
1. A37G C73A U96A
2. A37C G122U
3. A37U C72A C98A C123G
4. A46C C73G U87C

Result:
[-3.88, -0.263, -5.43, -1.35]

Would you mind giving polymerase ribozyme fitness (log ratio) for every variant in the list below?
1. C20U C53A G71A A91G
2. C22A A29G A50G U116G U129C

Result:
-5.09
-5.9
